Where do these numbers come from? They come from patent US10544143B2.

system_name: human TLR7 (Homo sapiens (Human))
Sequence (Q9NYK1 27-1049): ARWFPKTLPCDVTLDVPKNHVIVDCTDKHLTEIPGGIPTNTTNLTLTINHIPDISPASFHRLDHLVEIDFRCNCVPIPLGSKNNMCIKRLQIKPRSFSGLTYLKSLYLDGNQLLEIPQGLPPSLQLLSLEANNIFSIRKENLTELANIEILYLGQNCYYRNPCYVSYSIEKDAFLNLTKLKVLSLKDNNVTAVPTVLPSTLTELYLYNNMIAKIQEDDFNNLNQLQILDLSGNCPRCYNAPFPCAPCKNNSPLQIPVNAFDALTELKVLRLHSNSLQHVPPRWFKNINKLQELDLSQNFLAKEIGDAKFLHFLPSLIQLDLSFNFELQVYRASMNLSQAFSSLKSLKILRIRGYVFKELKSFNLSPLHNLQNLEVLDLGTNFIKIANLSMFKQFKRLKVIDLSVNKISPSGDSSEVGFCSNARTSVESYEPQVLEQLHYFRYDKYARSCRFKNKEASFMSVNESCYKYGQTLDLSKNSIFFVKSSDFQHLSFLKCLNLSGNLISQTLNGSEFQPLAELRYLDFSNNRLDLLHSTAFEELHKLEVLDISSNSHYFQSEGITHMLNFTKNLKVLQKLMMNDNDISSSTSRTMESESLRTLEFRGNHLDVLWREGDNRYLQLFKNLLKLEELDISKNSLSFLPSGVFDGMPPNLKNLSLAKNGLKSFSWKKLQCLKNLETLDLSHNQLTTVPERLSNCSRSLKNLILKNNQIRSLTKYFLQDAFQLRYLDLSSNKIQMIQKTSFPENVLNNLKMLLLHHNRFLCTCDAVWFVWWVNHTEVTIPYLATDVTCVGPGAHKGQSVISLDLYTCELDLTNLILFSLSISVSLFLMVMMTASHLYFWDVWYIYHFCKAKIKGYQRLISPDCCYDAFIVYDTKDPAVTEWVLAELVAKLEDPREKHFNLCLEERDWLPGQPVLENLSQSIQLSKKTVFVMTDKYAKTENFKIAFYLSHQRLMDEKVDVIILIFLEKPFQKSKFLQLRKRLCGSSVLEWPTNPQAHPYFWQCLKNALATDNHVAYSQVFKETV
procedure_text: TLR7 inhibition reporter assay (HEK-Blue SEAP)
Assay type: cell-based
test_parameters: HEK-Blue human TLR7 cells, gardiquimod 7.5 μM
pIC50: −log10 of the molar value.
property_measured: pIC50

structure_as_smiles	test_result
Cc1c(-c2[nH]c3ccc(N4CCN[C@@H](C(C)C)C4)nc3c2C(C)C)cn2ncnc2c1C	9.09
CC[C@H]1CNCCN1c1ccc2[nH]c(-c3cn4ncnc4c(C)c3C)c(C(C)C)c2n1	9.44

1 = Cc1c(-c2[nH]c3ccc(N4C[C@@H](C)N(C(=O)CCN5CCOCC5)C[C@@H]4C)nc3c2C(C)C)cn2ncnc2c1C
2 = Cc1c(-c2[nH]c3ccc(N4C[C@@H](C)N(C(=O)CN(C)C(C)(C)C)[C@H](C)C4)nc3c2C(C)C)cn2ncnc2c1C
**Q:** // which entry has the larger pIC50 value, 1 or 2 ? # reply format: chosen label
**A:** 1
(1: 9.12, 2: 8.48)

###

system_name: human TLR7 (Homo sapiens (Human))
procedure_text: TLR7 inhibition reporter assay (HEK-Blue SEAP)
Type: cell-based
test_parameters: HEK-Blue cells overexpressing human TLR7, SEAP reporter, gardiquimod 7.5 μM
property_measured: IC50 (nM)

I = COc1cc(-c2[nH]c3ccc(C4CCC(N(CC(N)=O)CC(N)=O)C4)nc3c2C(C)C)cn2ncnc12 (stereo not shown) [Example 720]
II = COc1cc(-c2[nH]c3ccc(C4CC(N(C)CC5(C)COC5)C4)nc3c2C(C)C)cn2ncnc12 (stereo not shown) [Example 643]
**Q:** Hi there, can you help? I need to know whether I or II has lower measured IC50. # reply format: chosen label
**A:** II

###

system_name: human TLR9 (Homo sapiens (Human), UniProt Q9NR96)
Sequence (Q9NR96 26-1032): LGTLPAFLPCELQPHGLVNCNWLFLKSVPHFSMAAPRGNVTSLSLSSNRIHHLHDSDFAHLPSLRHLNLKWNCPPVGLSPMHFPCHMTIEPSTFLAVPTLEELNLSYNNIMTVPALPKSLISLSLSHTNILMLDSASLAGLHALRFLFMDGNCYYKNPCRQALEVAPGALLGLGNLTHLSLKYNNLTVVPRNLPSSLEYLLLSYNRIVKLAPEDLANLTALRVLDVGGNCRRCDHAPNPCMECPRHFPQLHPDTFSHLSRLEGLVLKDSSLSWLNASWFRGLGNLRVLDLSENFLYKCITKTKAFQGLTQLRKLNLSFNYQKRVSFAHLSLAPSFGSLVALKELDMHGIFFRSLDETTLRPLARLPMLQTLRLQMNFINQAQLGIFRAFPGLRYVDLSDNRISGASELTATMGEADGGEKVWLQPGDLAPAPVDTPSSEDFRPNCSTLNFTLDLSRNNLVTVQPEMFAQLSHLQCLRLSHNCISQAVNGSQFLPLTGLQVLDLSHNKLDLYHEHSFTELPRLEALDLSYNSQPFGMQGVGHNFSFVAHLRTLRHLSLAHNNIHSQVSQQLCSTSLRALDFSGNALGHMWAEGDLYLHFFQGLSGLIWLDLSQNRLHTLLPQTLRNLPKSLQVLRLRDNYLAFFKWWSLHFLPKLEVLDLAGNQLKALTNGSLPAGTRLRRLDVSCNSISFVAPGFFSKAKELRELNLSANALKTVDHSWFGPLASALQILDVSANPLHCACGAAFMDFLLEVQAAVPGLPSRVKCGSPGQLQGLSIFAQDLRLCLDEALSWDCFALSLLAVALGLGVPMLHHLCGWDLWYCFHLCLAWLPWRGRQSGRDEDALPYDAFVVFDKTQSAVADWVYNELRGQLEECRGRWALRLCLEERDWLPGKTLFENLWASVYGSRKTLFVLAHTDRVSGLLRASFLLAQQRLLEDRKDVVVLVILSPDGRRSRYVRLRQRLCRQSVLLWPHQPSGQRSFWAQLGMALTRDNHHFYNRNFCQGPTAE
procedure_text: TLR9 inhibition reporter assay (HEK-Blue SEAP);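 also: SEAP driven by an IFN-β minimal promoter with NF-κB and AP-1 sites, read after 22 h, compounds dosed 0.05 nM–50 µM, inhibition scaled between agonist plus DMSO and reference-inhibitor wells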
test_parameters: read-out: TLR9 IC50; HEK-Blue cells overexpressing human TLR9, ODN2006 5 nM stimulation, SEAP reporter
property_measured: IC50 (µM)

// known answers, use as guide
molecule	system_name	IC50, µM
Cc1c(-c2[nH]c3ccc(N4CC(N5CCC(O)CC5)C4)nc3c2C(C)C)cn2ncnc2c1C [Example 40]	human TLR9 (Homo sapiens (Human), UniProt Q9NR96)	7.96
CNC(=O)CN(C)C1CCC(c2ccc3[nH]c(-c4cc(OC)c5ncnn5c4)c(C(C)C)c3n2)CC1 (stereo not drawn) [Example 228]	human TLR9 (Homo sapiens (Human), UniProt Q9NR96)	2.39
Cc1cc(-c2[nH]c3ccc(N4CCNCC4)nc3c2C(C)C)cn2ncnc12 [Example 88]	human TLR9 (Homo sapiens (Human), UniProt Q9NR96)	3.6
CC(C)c1c(-c2cn(C)c3ncccc23)[nH]c2ccc(C3CCC(NCC(=O)N(C)C)CC3)nc12 (stereo not drawn) [Example 183]	human TLR9 (Homo sapiens (Human), UniProt Q9NR96)	1.03
Cc1c(-c2[nH]c3ccc(N4CCC(N(Cc5cn(C)nn5)Cc5cn(C)nn5)CC4)nc3c2C(C)C)cn2ncnc2c1C [Example 73]	human TLR9 (Homo sapiens (Human), UniProt Q9NR96)	24.9
Cc1cc(-c2[nH]c3cc(F)c(C4CCNCC4)nc3c2C(C)C)cn2ncnc12 [Example 11]	human TLR9 (Homo sapiens (Human), UniProt Q9NR96)	6.79

P = Cc1c(-c2[nH]c3ccc(N4CCN(C(=O)CN5CCC(O)CC5)CC4)nc3c2C(C)C)cn2ncnc2c1C [Example 160]
Q = COc1cc(-c2[nH]c3ccc(C4CCC(N5CC6(C5)CS(=O)(=O)C6)CC4)nc3c2C(C)C)cn2ncnc12 (stereo not drawn) [Example 253]
**Q:** // which entry has the larger IC50 value, P or Q ? # reply format: chosen label
**A:** P
(P: 10.6 µM, Q: 1.15 µM)

a = COc1cc(-c2[nH]c3ccc(N4CCN(CCNS(C)(=O)=O)CC4)nc3c2C(C)C)cn2ncnc12 [Example 134]
b = Cc1c(-c2[nH]c3ccc(C4CCC(N5CCC(F)(F)CC5)CC4)nc3c2C(C)C)cn2ncnc2c1C (stereo not drawn) [Example 385]
**Q:** Hi there, can you help? I need to know whether a or b has lower measured IC50. # reply format: chosen label
**A:** b
(b: 11.2 µM, a: 26.1 µM)
